Every entry's value here was drawn from patent US20100233714.

Listing: Ka of selected sequences
# Test system: IgG, polyclonal mouse (Mus musculus)
# MEASUREMENT_NOTES: filter
# MEASUREMENT_CONDITIONS: pH 6, 41 mM Na+

{"columns": ["INPUT_SEQUENCE", "Ka"],
 "data": [
  ["CTCTCTCTTTTTCTCTCTCTTTTTGAGAGAG [RAD9]", "7.46 log10 M-1"],
  ["TGGGCCGGTAACGGGTTACCGTAAGGTCCC [RAD10]", "7.53 log10 M-1"],
  ["TTTTCGCGCGTTAACGCGCGAA [RAD16]", "7.07 log10 M-1"]
]}

So what's the measured Ka for this one? CCCTCCCTGGGCTTTTTTTGATTTTTCTTAA [RAD4]
7.71 log10 M-1

Also CCTTCCTTTGGAAGGTTG [RAD23] ?
6.77 log10 M-1

// same read-out, input: CCTCTTCTTTTTCTTCTCCTTTTTGGAGAAG [RAD2 (triplex 31mer)]
7.49 log10 M-1

Thanks! And TGGTTGGTTTTTGGAAGGATTTTTTCCTTCC [RAD3] ?
7.69 log10 M-1

Also, CCTCTTCTTTTTCTTCTC [RAD20] please.
8.3 log10 M-1

// repeat for GAGAGAGTTTTTGAGAGAGTTTTTCTCTCTC [RAD7] and report
7.69 log10 M-1

Can you check TTTTCGCGCGTACGCGCGCGAA [RAD15] next?
6.35 log10 M-1
